These data points were gathered from PubChem BioAssay (NCI).

# Test system: HCT-116 colon
# EXPERIMENTAL PROTOCOL: NCI-60 one-dose screen, 48 h (100 = growth as untreated, 0 = no growth, -100 = all killed)
# CONDITIONS USED: 10 µM unless noted
This is part of a sample that, as a whole, favours compounds with a hit. Of some 83,000 tested, about 20% had one in any assay.
MEASURED PROPERTY: growth (%)
All answers are understood in %, so give the number only.

INSERT INTO results (compound, target_or_test_system, endpoint_unit, measured_number) VALUES
  ('C=CC(C)(O)CCC1C(=C)CCC2C(C)(C)CCCC12C (configuration not stated)', 'HCT-116 colon', '%', 107);

What value of measured growth is listed for CC(C)(C)NC(C1=CC(C)(C)c2ccccc2C1=O)c1ccccc1 (configuration not stated) ?
-99.5

What value of measured growth is listed for "CC(C)(CCN=C(N)Nc1ccccn1)c1ccc(C(F)(F)F)cc1" ?
-45

What value of measured growth is listed for "CCN(CC)CCC(C(=O)O)(c1ccccc1)c1ccccc1" ?
90.9
